Could you please report measured pKd for the items listed next?
- subject of test: T1, Murine OPG-Fc (mouse, UniProt O08712 22-401)
- T1 sequence (looked up): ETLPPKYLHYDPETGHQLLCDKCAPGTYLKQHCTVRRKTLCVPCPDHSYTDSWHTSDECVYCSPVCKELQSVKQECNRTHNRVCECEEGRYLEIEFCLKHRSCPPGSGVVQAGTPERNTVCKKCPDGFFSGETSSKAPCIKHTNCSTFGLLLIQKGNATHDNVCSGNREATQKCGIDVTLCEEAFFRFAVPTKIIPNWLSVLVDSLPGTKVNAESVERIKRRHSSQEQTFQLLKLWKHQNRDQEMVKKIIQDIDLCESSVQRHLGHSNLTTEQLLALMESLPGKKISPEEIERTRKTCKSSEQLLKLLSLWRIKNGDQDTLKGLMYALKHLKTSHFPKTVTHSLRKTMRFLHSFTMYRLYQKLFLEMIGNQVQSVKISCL
- protocol text: SPR
Interpret pKd as the negative base-10 log of the concentration measured in mol/L.

Exercise: Give the measured pKd for RANKL_Q236N (ligand, mouse, UniProt O35235 160-316, looked up) EAQPFAHLTINAASIPSGSHKVTLSSWYHDRGWAKISNMTLSNGKLRVNQDGFYYLYANICFRHHETSGSVPTDYLNLMVYVVKTSIKIPSSHNLMKGGSTKNWSGNSEFHFYSINVGGFFKLRAGEEISIQVSNPSLLDPDQDATYFGAFKVQDID
Key: 10.68

Exercise: Output pKd of RANKL_Q236H (ligand, mouse, UniProt O35235 160-316, looked up) EAQPFAHLTINAASIPSGSHKVTLSSWYHDRGWAKISNMTLSNGKLRVNQDGFYYLYANICFRHHETSGSVPTDYLHLMVYVVKTSIKIPSSHNLMKGGSTKNWSGNSEFHFYSINVGGFFKLRAGEEISIQVSNPSLLDPDQDATYFGAFKVQDID
Key: 10.78

Exercise: Give the measured pKd for RANKL_Q236D (ligand, mouse, UniProt O35235 160-316, looked up) EAQPFAHLTINAASIPSGSHKVTLSSWYHDRGWAKISNMTLSNGKLRVNQDGFYYLYANICFRHHETSGSVPTDYLDLMVYVVKTSIKIPSSHNLMKGGSTKNWSGNSEFHFYSINVGGFFKLRAGEEISIQVSNPSLLDPDQDATYFGAFKVQDID
Key: 9.95

Exercise: State its pKd for this binder: RANKL_Q236P (ligand, mouse, UniProt O35235 160-316, looked up) EAQPFAHLTINAASIPSGSHKVTLSSWYHDRGWAKISNMTLSNGKLRVNQDGFYYLYANICFRHHETSGSVPTDYLPLMVYVVKTSIKIPSSHNLMKGGSTKNWSGNSEFHFYSINVGGFFKLRAGEEISIQVSNPSLLDPDQDATYFGAFKVQDID
Key: 10.67

Exercise: Check the records and state pKd for RANKL_Q236A (ligand, mouse, UniProt O35235 160-316, looked up) EAQPFAHLTINAASIPSGSHKVTLSSWYHDRGWAKISNMTLSNGKLRVNQDGFYYLYANICFRHHETSGSVPTDYLALMVYVVKTSIKIPSSHNLMKGGSTKNWSGNSEFHFYSINVGGFFKLRAGEEISIQVSNPSLLDPDQDATYFGAFKVQDID
Key: 10.69
